protocol_notes: qHTS assay to test for compound auto fluorescence at 460 nm (blue) in HepG2 cells (AID 720687); also: % is scaled to controls: 0 for no effect and ±100 for the full control effect
condition_context: autofluorescence 405/460 nm, 1 h; series mostly up to 91.3 µM
The source made the active and inactive calls. Calls follow the shape of the dose curve; as a rule, active = well fitted curve in the direction sought with a large enough effect in the repeat runs; inconclusive = weak or mixed curves; inactive = flat fitted curve, though single readings scatter.
property_label: fluorescence, % of fluorescent control

Solved cases below.
| molecular_string | fluorescence, % of fluorescent control |
| --- | --- |
| COc1cc(O)cc(O)c1 | inactive |
| Cc1cc(C)c(NC(=O)CN(CC(=O)O)CC(=O)O)c(C)c1Br | inactive |
| CCC(=O)/C=C/c1ccc(OC)cc1 | inactive |
| FC(F)(F)C(F)(F)C(F)(F)C(F)(F)C(F)(F)C(F)(F)C(F)(F)C(F)(F)C(F)(F)C(F)(F)F | 0.105% [at 9.17 µM] (inactive) |
| CCCCCCCCN(C)CCCCCCCC | inactive |
| CC(=O)CCc1ccc(O)cc1 | inactive |

Data request: Please give the measured fluorescence, % of fluorescent control for this compound: "CC(C)(O)Cc1ccccc1"
Data returned: inactive

###

tgt: Cytochrome P450 2C19 (Homo sapiens)
protocol_notes: Cytochrome P450 Family 2 Subfamily C Member 19 (CYP2C19) small molecule antagonists: luciferase reporter qHTS assay (AID 1671197); also: % is scaled to controls: 0 for no effect and ±100 for the full control effect; nearly all actives have a fitted effect of over 65% in size
condition_context: P450-Glo CYP2C19 enzyme, luciferin luminescence, 1 h; series mostly up to 115 µM
Inconclusive results are not listed. Activity calls are given as the source filed them. Calls come from the whole dose curve; as a rule, active = well fitted inhibition curve with a large enough effect in the repeat runs; inconclusive = weak or mixed curves; inactive = no such curve, though single readings can be large or run the other way.
Please respond with reported activity change, negative = inhibition for every item in the list.

Here's what some known entries look like.
| molecular_string | observed_value |
| --- | --- |
| C1CCCCCCCCCCC1 | -20.8% [at 23.6 µM] (inactive) |
| FC(F)(F)C(F)(F)C(F)(F)C(F)(F)C(F)(F)C(F)(F)C(F)(F)C(F)(F)C(F)(F)C(F)(F)F | -6.18% [at 10.5 µM] (inactive) |
| NC(=S)Nc1cccc2ccccc12 | -10% [at 10.5 µM] (inactive) |

Data request: Suppose we examine the compound "NCC[C@H](O)C(=O)N[C@@H]1C[C@H](N)[C@@H](O[C@H]2O[C@H](CN)[C@@H](O)[C@H](O)[C@H]2O)[C@H](O)[C@H]1O[C@H]1O[C@H](CO)[C@@H](O)[C@H](N)[C@H]1O" ; what activity change, negative = inhibition value has been reported?
Data returned: 3.5% [at 0.435 µM] (inactive)

###

protocol_notes: qHTS assay for identifying genotoxic compounds that show differential cytotoxicity against isogenic chicken DT40 cell lines with known DNA damage response pathways - wild type cell line (AID 743012); also: nearly all actives have a fitted effect of over 60% in size
condition_context: DT40 wild type chicken cells viability, CellTiter-Glo, 40 h; series mostly up to 68.4 µM
Records with an inconclusive call do not appear. The source made the active and inactive calls. The call rests on the fitted dose curve; in most records, active means well fitted cell-killing curve with a large enough effect in the repeat runs; inconclusive means weak or mixed curves, or effect the other way; inactive means no such curve, though single readings can be large or run the other way.
Pick from active, inactive when you respond.

// known answers, use as guide
| compound | classification |
| --- | --- |
| NS(=O)(=O)c1cc2c(cc1C(F)(F)F)NC(Cc1ccccc1)NS2(=O)=O (stereo not given) | inactive |
| CC(C)=CC(=O)O | inactive |
| CCN(CC)C(=O)c1ccc(O)c(OC)c1 | inactive |

Data request: For CCCCCCC(CCCCCCCCCCC(=O)OCC(COC(C)=O)OC(C)=O)OC(C)=O (stereo not given) , what call appears in the results of this test?
Data returned: inactive

Data request: Similarly, "NCCNC(=O)c1ccc(Cl)cn1" ?
Data returned: inactive

Data request: Also, "C1COCCO1" please.
Data returned: inactive

Data request: For "NC(=O)c1ncn([C@@H]2O[C@H](CO)[C@@H](O)[C@H]2O)c1O" then?
Data returned: inactive

Data request: Please do the same for "NCC[C@H](O)C(=O)N[C@@H]1C[C@H](N)[C@@H](O[C@H]2O[C@H](CN)[C@@H](O)[C@H](O)[C@H]2O)[C@H](O)[C@H]1O[C@H]1O[C@H](CO)[C@@H](O)[C@H](N)[C@H]1O" as well.
Data returned: inactive

Data request: Now the same for "CCCC(=O)O[C@]1(C(=O)CCl)[C@@H](C)C[C@H]2[C@@H]3CCC4=CC(=O)C=C[C@]4(C)[C@@]3(F)C(=O)C[C@@]21C"
Data returned: active

Data request: Another compound to check: "C/C=C1\C(=O)C[C@H]2[C@@H]3CCC4=CC(=O)CC[C@]4(C)[C@H]3CC[C@]12C"
Data returned: active
